The reported numbers originate from patent US9359314B2.

Below are compounds with their Papp(×10^−6) as measured on MDCK-MDR1 cells.

Examples with answers:
CCCOC(=O)[C@@H](CC(C)C)NC(=O)[C@@H]1CSCCN1S(=O)(=O)c1ccc(C)cc1 49.8 ×10^−6
Cc1ccc(S(=O)(=O)N2CCSC[C@H]2C(=O)N[C@H](CC(C)C)C(=O)OCc2ccccc2)cc1 12.4 ×10^−6
CCOC(=O)[C@H](CC(C)C)NC(=O)[C@@H]1CSCCN1S(=O)(=O)c1ccc(C)cc1 8.38 ×10^−6
Cc1ccc(S(=O)(=O)N2CCSC[C@H]2C(=O)N[C@H](CC(C)C)C(=O)O)cc1 34.1 ×10^−6
CCOC(=O)[C@@H](CC(C)C)NC(=O)[C@@H]1CSCCN1S(=O)(=O)c1ccc(C)cc1 19.2 ×10^−6

Next up:
Form field, Papp(×10^−6) with MDCK-MDR1 cells, item Cc1ccc(S(=O)(=O)N2CCSC[C@H]2C(=O)N[C@H](CC(C)C)C(=O)OC(C)C)cc1 : 39.5 ×10^−6
